Tested Target: T1, recombinant soluble human IL-6R (human, UniProt P08887 20-365)
T1 construct: also called sIL-6R; shIL-6R
T1 sequence: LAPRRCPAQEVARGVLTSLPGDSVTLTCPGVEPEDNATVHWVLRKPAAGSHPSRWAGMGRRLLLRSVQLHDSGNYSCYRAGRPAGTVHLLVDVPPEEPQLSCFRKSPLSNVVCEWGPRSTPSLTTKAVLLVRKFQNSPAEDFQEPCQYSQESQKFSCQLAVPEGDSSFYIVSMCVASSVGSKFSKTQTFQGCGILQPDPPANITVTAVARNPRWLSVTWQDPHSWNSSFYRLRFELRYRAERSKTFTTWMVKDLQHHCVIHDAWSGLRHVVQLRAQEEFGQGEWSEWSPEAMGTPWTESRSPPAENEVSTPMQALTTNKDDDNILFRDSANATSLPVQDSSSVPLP
Protocol Description: gp130 ELISA (competition), parallel human arm: 10 ng/mL human IL-6R, 50 ng/mL human IL-6
Recorded pIC50 values for a group of binders are listed next.
pIC50 (log units): -log10 of the concentration in mol/L.

{"Binder": "20A11 (prior art comparative example) (VHH, Prior art anti-IL-6R polypeptide disclosed in WO 2010/115998; also called PMP20A11) VHH: EVQLVESGGGLVQPGGSLRLSCAASGSVFKINVMAWYRQAPGKGRELVAGIISGGSTSYADSVKGRFTISRDNAKNTLYLQMNSLRPEDTAVYYCAFITTESDYDLGRRYWGQGTLVTVSS", "pIC50": 9.62}

Problem: Which pIC50 is listed for 5G9 (VHH, also called VIL-5G9; 'Wild type' 5G9; not shown: C-terminal Flag and 6xHis tags from vector pMEK222) VHH: EVQLVESGGGLVQAGGSTRLTCKASGSIFNINSINVMAWYRQAPGKQRELVAIIGKGGGTNYADFVKGRFTISRDAAKNTVNLQMNSLKPEDTAVYYCYADYEDRDSPFNASWGQGTQVTVSS ?
Solution: 9.83

Where do the numbers come from? From patent US20220380475A1.
